- test target: EZH2 (Homo sapiens, UniProt Q15910)
- Sequence (Q15910 whole entry): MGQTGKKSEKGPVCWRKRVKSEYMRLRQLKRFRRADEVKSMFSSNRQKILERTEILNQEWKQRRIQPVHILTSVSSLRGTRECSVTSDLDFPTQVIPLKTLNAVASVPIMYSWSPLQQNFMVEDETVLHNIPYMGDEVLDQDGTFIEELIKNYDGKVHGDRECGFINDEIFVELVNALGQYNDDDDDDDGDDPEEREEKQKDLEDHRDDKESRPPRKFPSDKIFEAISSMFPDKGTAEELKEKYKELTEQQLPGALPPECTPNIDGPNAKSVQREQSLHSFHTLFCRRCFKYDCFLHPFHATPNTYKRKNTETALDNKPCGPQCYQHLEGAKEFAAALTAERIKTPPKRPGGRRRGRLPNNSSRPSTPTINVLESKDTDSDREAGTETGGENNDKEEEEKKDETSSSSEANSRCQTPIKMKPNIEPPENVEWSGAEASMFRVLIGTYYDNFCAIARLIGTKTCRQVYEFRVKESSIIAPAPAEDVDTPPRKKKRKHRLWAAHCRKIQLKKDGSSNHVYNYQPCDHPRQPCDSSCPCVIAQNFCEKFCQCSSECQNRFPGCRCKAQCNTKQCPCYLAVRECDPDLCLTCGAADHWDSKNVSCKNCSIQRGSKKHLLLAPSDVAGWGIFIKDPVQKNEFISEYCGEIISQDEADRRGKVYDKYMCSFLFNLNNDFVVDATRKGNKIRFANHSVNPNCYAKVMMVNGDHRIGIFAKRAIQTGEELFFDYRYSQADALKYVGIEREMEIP
- Sequence (O75530 whole entry partner): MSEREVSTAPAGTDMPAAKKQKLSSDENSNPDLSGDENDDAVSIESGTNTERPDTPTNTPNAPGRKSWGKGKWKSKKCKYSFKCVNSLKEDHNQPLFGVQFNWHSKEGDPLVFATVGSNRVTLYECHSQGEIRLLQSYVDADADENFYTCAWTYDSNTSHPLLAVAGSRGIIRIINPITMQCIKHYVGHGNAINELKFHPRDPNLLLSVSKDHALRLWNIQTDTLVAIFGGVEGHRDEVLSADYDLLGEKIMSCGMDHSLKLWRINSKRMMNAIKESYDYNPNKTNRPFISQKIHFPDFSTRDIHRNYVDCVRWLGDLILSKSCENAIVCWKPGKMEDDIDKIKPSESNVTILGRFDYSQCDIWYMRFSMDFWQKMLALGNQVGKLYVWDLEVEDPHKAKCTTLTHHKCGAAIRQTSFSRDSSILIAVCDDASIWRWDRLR
- Sequence (Q15022 whole entry partner): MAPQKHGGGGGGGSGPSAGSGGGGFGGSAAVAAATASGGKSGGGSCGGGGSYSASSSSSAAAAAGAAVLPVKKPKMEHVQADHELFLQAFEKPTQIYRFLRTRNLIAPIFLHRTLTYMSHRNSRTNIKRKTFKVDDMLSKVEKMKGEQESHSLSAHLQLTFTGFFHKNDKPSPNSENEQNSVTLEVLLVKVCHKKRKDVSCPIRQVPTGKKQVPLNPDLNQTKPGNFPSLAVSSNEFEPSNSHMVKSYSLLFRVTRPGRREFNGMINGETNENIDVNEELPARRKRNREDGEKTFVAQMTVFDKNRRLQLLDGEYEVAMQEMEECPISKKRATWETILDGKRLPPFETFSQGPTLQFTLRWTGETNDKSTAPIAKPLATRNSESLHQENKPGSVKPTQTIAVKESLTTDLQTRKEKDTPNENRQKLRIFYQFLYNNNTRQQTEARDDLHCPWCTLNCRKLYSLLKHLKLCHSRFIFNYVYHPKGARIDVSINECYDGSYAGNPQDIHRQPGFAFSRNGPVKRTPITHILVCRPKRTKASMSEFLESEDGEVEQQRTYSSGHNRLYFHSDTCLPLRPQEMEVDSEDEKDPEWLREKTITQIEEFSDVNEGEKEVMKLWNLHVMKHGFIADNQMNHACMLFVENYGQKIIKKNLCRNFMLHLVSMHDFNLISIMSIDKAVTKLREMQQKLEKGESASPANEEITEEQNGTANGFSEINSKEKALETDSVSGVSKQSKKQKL
- assay protocol: EZH2 assay: rPRC2 with biotinylated oligonucleosome substrates and 3H SAM, FlashPlate scintillation counting, IC50
- Type: biochemical
- condition details: rPRC2, biotinylated oligonucleosome substrates, 3H SAM; read-out: EZH2 IC50
pIC50: −log10 of the molar value.
// reported pIC50 per item

{"compound structure": "CC1(C)CC(NC(=O)c2ccc(Oc3ccccc3CC#N)cc2)CC(C)(C)N1", "observed property": "pIC50", "result": "4.10 to 4.70"}
{"compound structure": "CC1(C)CC(NC(=O)c2ccc(N3CCOc4ccccc43)c(Cl)c2)CC(C)(C)N1", "observed property": "pIC50", "result": "4.10 to 4.70"}

Please indicate pIC50 recorded for `CC1(C)CC(NC(=O)c2ccc(Oc3cccc4c(Cl)nccc34)cc2)CC(C)(C)N1`
4.70 to 5.30

Please indicate pIC50 recorded for `Cc1ccc(Oc2ccc(C(=O)NC3CC(C)(C)NC(C)(C)C3)cc2)cc1C`
< 4.10

* * *

- test target: EZH2 (Homo sapiens)
- assay protocol: EZH2 assay: rPRC2 with biotinylated oligonucleosome substrates and 3H SAM, FlashPlate scintillation counting, IC50
- Type: biochemical
- condition details: rPRC2, biotinylated oligonucleosome substrates, 3H SAM; read-out: EZH2 IC50
- Procedure: Assays were carried out by mixing rPRC2 together with biotinylated oligonucleosome substrates in the presence of the radio-labeled enzyme co-factor, S-adenosyl-L-methionine (^3H SAM) (Perkin Elmer) and monitoring the enzymatically mediated transfer of tritiated methyl groups from ^3H SAM to histone lysine residues. […]
pIC50: −log10 of the molar value.
observed property: pIC50

{"compound": "CN(C)c1cccc(Oc2ccc(C(=O)NC3CC(C)(C)NC(C)(C)C3)cc2Cl)c1C#N [Compound I-334]", "test target": "EZH2 (Homo sapiens)", "result": "> 5.30"}
{"compound": "CC1(C)CC(NC(=O)c2ccc(OC3CNC3)c(Cl)c2)CC(C)(C)N1 [Compound I-392]", "test target": "EZH2 (Homo sapiens)", "result": "< 4.10"}
{"compound": "CC1(C)CC(NC(=O)c2ccc(Oc3ccccc3C3=CCNCC3)c(Cl)c2)CC(C)(C)N1 [Compound I-229]", "test target": "EZH2 (Homo sapiens)", "result": "4.70 to 5.30"}
{"compound": "CC1(C)CC(NC(=O)c2ccc(Oc3cccc4c3CCNC4)c(Cl)c2)CC(C)(C)N1 [Compound I-423]", "test target": "EZH2 (Homo sapiens)", "result": "> 5.30"}
{"compound": "Cc1noc(C)c1-c1cccc(Oc2ccc(C(=O)NC3CC(C)(C)NC(C)(C)C3)cc2Cl)c1C#N [Compound I-463]", "test target": "EZH2 (Homo sapiens)", "result": "> 5.30"}
{"compound": "CC(O)c1cccc(Oc2ccc(C(=O)NC3CC(C)(C)NC(C)(C)C3)cc2Cl)c1Br (centres unmarked) [Compound I-399]", "test target": "EZH2 (Homo sapiens)", "result": "> 5.30"}
{"compound": "CC1(C)CC(NC(=O)c2cccc(COc3ccccc3)c2)CC(C)(C)N1 [Compound I-111]", "test target": "EZH2 (Homo sapiens)", "result": "< 4.10"}

Now for the compound whose pIC50 we want.
Please indicate pIC50 recorded for CC1(C)CC(NC(=O)c2ccc(Oc3cccc(-c4ccncc4)c3C#N)c(Cl)c2)CC(C)(C)N1 [Compound I-339]
> 5.30
